Molecular target: UniProtKB P45984
Sequence (P45984 whole entry, looked up): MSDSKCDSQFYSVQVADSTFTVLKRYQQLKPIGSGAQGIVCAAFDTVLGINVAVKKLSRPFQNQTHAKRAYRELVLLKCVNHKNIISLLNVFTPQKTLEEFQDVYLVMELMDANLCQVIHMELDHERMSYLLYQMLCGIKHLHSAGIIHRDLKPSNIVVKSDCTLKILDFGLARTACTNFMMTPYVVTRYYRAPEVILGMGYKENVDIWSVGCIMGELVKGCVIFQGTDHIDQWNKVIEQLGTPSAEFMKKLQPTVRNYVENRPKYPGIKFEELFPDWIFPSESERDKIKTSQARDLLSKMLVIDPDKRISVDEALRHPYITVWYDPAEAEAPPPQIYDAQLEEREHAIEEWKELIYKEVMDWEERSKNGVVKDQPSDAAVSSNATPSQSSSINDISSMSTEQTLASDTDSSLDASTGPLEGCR
Experiment: radiometric filter-binding kinase assay
Conditions: compound 0.1 µM
// residual activity lookup, one value per entry
Numbers only; they are read as %.

Previously resolved entries follow.
>>> endpoint_value("NC(=O)c1cc(-c2ccnc(NC3CCCCC3)c2)nc(N2CCNCC2)c1")
91
>>> endpoint_value("O=C(Nc1ccccc1-c1cn2c(CN3CCNCC3)csc2n1)c1cnc2ccccc2n1")
101
>>> endpoint_value("CCn1c(-c2nonc2N)nc2cncc(CNC3CCNCC3)c21")
109
>>> endpoint_value("O=C(O)c1ccc(-c2c[nH]c3ncc(-c4ccccc4)cc23)cc1C1CCCC1")
80
>>> endpoint_value("NC1(c2ccc(-c3nc4ccn5c(=O)[nH]nc5c4cc3-c3ccccc3)cc2)CCC1")
83
>>> endpoint_value("COc1ccc2c(c1)c1c3c(c4c5ccccc5n(C)c4c1n2CC(O)CN(C)C)C(=O)NC3=O (stereo not given)")
92
>>> endpoint_value("CCCCCc1ccc(/C=C/[C@H](O)[C@@H](CO)NC)cc1")
85
>>> endpoint_value("O=C(NCCCNc1nc(Nc2cccc(CN3CCOCC3)c2)ncc1C1CC1)C1CCC1")
97
>>> endpoint_value("C=CC(=O)N1CCC[C@@H](n2nc(-c3ccc(Oc4ccccc4)cc3)c3c(N)ncnc32)C1")
89

Switching to the query record.
Result for Cc1ccc(Sc2cnc(Nc3cccc(Br)n3)s2)cc1C(=O)N1CCN(C(=O)CN)CC1 , tested on UniProtKB P45984, residual activity: 98

====

Biological target: AURKA (human) (UniProt O14965)
Sequence (O14965 whole entry, looked up): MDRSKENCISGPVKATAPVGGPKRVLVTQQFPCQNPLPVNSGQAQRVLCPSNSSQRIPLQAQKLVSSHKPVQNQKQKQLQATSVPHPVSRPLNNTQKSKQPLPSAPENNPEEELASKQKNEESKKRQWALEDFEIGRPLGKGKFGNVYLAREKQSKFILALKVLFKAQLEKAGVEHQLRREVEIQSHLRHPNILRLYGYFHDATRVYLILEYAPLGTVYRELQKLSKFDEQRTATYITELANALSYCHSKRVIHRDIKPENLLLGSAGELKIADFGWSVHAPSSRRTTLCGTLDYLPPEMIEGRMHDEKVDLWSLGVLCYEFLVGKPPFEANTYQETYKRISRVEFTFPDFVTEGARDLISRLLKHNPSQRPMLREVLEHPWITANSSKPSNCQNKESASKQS
Assay: radiometric filter-binding kinase assay
Conditions: compound 0.1 µM
// residual activity lookup, one value per entry

Previously resolved entries follow.
>>> endpoint_value("CCCCCc1ccc(/C=C/[C@H](O)[C@@H](CO)NC)cc1")
"116%"
>>> endpoint_value("CC1=C(CO)C(=O)O[C@@H]([C@@H](C)[C@H]2CC[C@H]3[C@@H]4C[C@H]5O[C@]56[C@@H](O)C=CC(=O)[C@]6(C)C4CC[C@]23C)C1 (some centres undefined)")
"108%"
>>> endpoint_value("Cc1cc(NC(=O)c2cccc(NC(=O)/C=C/CN(C)C)c2)ccc1Nc1nccc(-c2cccnc2)n1")
"97%"

// residual activity value for Cc1ccc(Sc2cnc(Nc3cccc(Br)n3)s2)cc1C(=O)N1CCN(C(=O)CN)CC1 : 3%

====

Target: MAPK12 (human) (UniProt P53778)
Sequence (P53778 whole entry, looked up): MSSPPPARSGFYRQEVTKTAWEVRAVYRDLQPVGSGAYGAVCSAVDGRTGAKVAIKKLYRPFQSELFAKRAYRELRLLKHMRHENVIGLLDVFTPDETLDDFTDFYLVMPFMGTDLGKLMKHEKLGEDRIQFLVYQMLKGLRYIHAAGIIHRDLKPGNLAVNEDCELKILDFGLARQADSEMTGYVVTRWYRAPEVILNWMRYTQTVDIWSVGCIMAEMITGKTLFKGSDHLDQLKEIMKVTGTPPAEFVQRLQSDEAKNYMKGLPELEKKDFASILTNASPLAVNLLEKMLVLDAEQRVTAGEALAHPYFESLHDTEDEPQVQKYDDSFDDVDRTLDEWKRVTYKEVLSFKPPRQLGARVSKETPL
Test: radiometric filter-binding kinase assay
Settings: compound 10.0 µM
property: residual activity (%)
Numbers only; they are read as %.

>>> endpoint_value("Oc1ccc(/C=C/c2cc(O)cc(O)c2)cc1")
78

Result for NCC(=O)Nc1ccc(-n2nc(C(F)(F)F)cc2-c2ccc3c(ccc4ccccc43)c2)cc1 , tested on MAPK12 (human) (UniProt P53778), residual activity: 70

Result for NC1(c2ccc(-c3nc4ccn5c(=O)[nH]nc5c4cc3-c3ccccc3)cc2)CCC1 , tested on MAPK12 (human) (UniProt P53778), residual activity: 101

Result for Cc1ccc2c(c1)C(=O)[C@@]1(O)CCN(c3ccccc3)C1=N2 , tested on MAPK12 (human) (UniProt P53778), residual activity: 99

====

Molecular target: PRKCG (human) (UniProt P05129)
Assay: radiometric filter-binding kinase assay
Conditions: compound 0.01 µM
property: residual activity (%)
Numbers only; they are read as %.

Previously resolved entries follow.
>>> endpoint_value("COc1ccc(N(C(=O)Nc2c(C)cccc2C)c2cc(Nc3ccc(N4CCN(C)CC4)cc3)ncn2)c(OC)c1")
101
>>> endpoint_value("COc1cc(O)c2c(c1)[C@H]1OC1C[C@H](O)[C@H](O)C(=O)/C=C\\C[C@H](C)OC2=O (some centres undefined)")
103
>>> endpoint_value("O=C(Nc1nc2cc(C(F)(F)F)cc(NC3CC3)n2n1)c1cccnc1")
101

Switching to the query record.
// residual activity value for CNC(=O)C1[C@H]2O[C@@](C)([C@@H]1N)n1c3ccccc3c3c4c(c5c6ccccc6n2c5c31)C(=O)NC4 (some centres undefined) : 95

====

Biological target: RPS6KA5 KD1 KD2 (human)
Assay: radiometric filter-binding kinase assay
Conditions: compound 10.0 µM
property: residual activity

Previously resolved entries follow.
>>> endpoint_value("Cc1ccc(Sc2cnc(Nc3cccc(Br)n3)s2)cc1C(=O)N1CCN(C(=O)CN)CC1")
"22%"
>>> endpoint_value("Oc1ccc(/C=C/c2cc(O)cc(O)c2)cc1")
"65%"
>>> endpoint_value("CC1=C(CO)C(=O)O[C@@H]([C@@H](C)[C@H]2CC[C@H]3[C@@H]4C[C@H]5O[C@]56[C@@H](O)C=CC(=O)[C@]6(C)C4CC[C@]23C)C1 (stereo partly specified)")
"99%"
>>> endpoint_value("O=c1c(O)c(-c2ccc(O)c(O)c2)oc2cc(O)c(O)c(O)c12")
"38%"
>>> endpoint_value("O=C(Nc1cccnc1)c1cc(-c2ccnc(F)c2)ccc1OCc1ccccc1")
"120%"
>>> endpoint_value("CCc1cncnc1N1CCN(Cc2nc3cc(C(F)(F)F)ccc3[nH]2)CC1")
"6%"

Result for CCCC(CCC)C(=O)O , tested on RPS6KA5 KD1 KD2 (human), residual activity: 86%

====

// residual activity lookup, one value per entry
Biological target: MKNK1 (human) (UniProt Q9BUB5)
Sequence (Q9BUB5 whole entry, looked up): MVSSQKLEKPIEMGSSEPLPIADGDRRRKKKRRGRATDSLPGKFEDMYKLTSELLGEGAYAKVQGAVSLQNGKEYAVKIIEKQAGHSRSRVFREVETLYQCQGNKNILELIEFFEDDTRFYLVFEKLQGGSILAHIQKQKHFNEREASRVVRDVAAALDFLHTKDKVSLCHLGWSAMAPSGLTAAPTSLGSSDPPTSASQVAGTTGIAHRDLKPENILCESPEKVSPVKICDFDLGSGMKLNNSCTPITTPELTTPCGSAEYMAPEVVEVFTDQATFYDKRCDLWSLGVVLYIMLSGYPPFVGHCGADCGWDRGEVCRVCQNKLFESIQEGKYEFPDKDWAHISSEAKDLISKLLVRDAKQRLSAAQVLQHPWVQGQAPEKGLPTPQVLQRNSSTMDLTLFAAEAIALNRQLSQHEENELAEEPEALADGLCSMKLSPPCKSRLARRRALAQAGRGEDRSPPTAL
Assay: radiometric filter-binding kinase assay
Conditions: compound 0.1 µM
Numbers only; they are read as %.

>>> endpoint_value("C/C(=C1/C(=O)Nc2ccc(NC(N)=O)cc21)c1ccc[nH]1")
82
>>> endpoint_value("O=C(Nc1nc2cc(C(F)(F)F)cc(NC3CC3)n2n1)c1cccnc1")
99
>>> endpoint_value("CNc1nc(-c2ccc3c(N)n[nH]c3c2)cc(N2C[C@@H](C(=O)NC3CCCCC3)CC[C@H]2C)n1")
108
>>> endpoint_value("Cc1cccc(-c2nn(C(=S)Nc3ccccc3)cc2-c2ccnc3ccccc23)n1")
103

Switching to the query record.
Result for COc1ccc(N(C(=O)Nc2c(C)cccc2C)c2cc(Nc3ccc(N4CCN(C)CC4)cc3)ncn2)c(OC)c1 , tested on MKNK1 (human) (UniProt Q9BUB5), residual activity: 116

====

Biological target: IKBKB (human) (UniProt O14920)
Sequence (O14920 whole entry, looked up): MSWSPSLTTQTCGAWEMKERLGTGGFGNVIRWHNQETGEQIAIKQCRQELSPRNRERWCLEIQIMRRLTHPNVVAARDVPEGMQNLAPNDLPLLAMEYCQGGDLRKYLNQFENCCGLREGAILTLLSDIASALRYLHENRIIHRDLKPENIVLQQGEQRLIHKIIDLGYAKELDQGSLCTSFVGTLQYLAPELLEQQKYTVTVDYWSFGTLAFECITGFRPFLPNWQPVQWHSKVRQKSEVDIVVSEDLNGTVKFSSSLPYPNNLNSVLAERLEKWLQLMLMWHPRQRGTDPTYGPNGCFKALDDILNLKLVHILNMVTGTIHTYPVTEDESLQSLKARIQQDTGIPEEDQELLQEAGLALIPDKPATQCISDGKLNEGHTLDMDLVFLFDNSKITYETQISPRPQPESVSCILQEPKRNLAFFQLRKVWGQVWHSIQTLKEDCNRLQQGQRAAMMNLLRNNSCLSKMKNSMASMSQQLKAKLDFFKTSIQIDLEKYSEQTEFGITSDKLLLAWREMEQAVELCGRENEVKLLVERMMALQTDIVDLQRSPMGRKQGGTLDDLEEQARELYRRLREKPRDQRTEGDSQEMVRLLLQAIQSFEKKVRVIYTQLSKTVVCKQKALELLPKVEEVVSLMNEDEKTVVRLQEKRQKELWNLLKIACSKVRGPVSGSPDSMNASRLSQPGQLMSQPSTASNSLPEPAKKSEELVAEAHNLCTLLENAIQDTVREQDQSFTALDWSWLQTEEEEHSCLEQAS
Assay: radiometric filter-binding kinase assay
Details: compound 10.0 µM
property: residual activity (%)
Numbers only; they are read as %.

Previously resolved entries follow.
>>> endpoint_value("CC(C)C[C@H](NC(=O)CNC(=O)c1cc(Cl)ccc1Cl)B1OC(=O)CC(CC(=O)O)(C(=O)O)O1 (some centres not stated)")
97
>>> endpoint_value("N#Cc1c(O)c2c(-c3ccc(-c4ccccc4O)cc3)csc2[nH]c1=O")
86
>>> endpoint_value("O=C(NOC[C@H](O)CO)c1ccc(F)c(F)c1Nc1ccc(I)cc1Cl")
103
>>> endpoint_value("NCC(=O)Nc1ccc(-n2nc(C(F)(F)F)cc2-c2ccc3c(ccc4ccccc43)c2)cc1")
88
>>> endpoint_value("CCNc1nc(Nc2cc(F)c(C(=O)N3CCOCC3)cc2OC)ncc1C(F)(F)F")
93
>>> endpoint_value("COc1ccc2c(c1)c1c3c(c4c5ccccc5n(C)c4c1n2CC(O)CN(C)C)C(=O)NC3=O (configuration not stated)")
80

Switching to the query record.
// residual activity value for CCCC(CCC)C(=O)O : 79

====

Target: IGF1R (human) (UniProt P08069)
Sequence (P08069 whole entry, looked up): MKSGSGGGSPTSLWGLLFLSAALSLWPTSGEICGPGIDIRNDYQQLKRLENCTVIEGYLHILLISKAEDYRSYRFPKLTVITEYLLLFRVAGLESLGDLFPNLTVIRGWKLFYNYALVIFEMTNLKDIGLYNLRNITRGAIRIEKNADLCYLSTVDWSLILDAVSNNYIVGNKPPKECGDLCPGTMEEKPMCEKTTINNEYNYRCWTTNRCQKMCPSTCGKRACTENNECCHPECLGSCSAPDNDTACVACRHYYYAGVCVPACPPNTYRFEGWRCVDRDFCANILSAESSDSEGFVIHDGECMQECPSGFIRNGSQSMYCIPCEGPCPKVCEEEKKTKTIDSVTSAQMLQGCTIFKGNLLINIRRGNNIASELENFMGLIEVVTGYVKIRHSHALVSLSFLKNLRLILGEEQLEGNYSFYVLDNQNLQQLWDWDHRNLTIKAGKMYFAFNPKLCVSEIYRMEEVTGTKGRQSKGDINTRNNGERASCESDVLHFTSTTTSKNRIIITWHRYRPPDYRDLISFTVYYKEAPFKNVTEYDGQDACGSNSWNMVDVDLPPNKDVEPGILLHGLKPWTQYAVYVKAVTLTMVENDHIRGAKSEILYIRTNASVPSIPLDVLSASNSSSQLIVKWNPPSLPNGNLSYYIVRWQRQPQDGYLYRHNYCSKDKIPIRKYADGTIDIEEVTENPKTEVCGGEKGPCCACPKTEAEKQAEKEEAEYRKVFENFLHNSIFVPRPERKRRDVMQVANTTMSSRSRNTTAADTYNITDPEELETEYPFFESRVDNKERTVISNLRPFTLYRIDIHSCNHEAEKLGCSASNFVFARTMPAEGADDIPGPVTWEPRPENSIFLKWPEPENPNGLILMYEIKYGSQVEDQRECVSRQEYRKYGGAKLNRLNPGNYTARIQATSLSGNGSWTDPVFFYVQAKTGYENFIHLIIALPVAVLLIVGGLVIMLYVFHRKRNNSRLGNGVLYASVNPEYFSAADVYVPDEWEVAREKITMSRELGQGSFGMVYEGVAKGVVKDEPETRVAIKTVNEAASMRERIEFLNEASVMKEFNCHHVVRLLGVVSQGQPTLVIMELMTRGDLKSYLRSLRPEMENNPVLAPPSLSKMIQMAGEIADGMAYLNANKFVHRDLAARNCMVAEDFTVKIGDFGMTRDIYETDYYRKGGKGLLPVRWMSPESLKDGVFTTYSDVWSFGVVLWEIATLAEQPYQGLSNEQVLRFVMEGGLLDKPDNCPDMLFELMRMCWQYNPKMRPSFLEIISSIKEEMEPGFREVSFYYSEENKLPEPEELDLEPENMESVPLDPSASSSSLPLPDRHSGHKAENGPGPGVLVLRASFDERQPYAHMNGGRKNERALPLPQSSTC
Assay: radiometric filter-binding kinase assay
Conditions: compound 1.0 µM
property: residual activity (%)
Numbers only; they are read as %.

Previously resolved entries follow.
>>> endpoint_value("CCNc1nc(Nc2cc(F)c(C(=O)N3CCOCC3)cc2OC)ncc1C(F)(F)F")
32
>>> endpoint_value("C[C@H]1CCCC(=O)CCC/C=C/c2cc(O)cc(O)c2C(=O)O1")
93
>>> endpoint_value("Cc1ccc(Sc2cnc(Nc3cccc(Br)n3)s2)cc1C(=O)N1CCN(C(=O)CN)CC1")
2
>>> endpoint_value("O=C(O)c1cc(N=Nc2ccc(S(=O)(=O)Nc3ccccn3)cc2)ccc1O")
111

Result for Cc1cccc(-c2nn(C(=S)Nc3ccccc3)cc2-c2ccnc3ccccc23)n1 , tested on IGF1R (human) (UniProt P08069), residual activity: 103

====

// residual activity lookup, one value per entry
Molecular target: UniProt O75716
Sequence (O75716 whole entry, looked up): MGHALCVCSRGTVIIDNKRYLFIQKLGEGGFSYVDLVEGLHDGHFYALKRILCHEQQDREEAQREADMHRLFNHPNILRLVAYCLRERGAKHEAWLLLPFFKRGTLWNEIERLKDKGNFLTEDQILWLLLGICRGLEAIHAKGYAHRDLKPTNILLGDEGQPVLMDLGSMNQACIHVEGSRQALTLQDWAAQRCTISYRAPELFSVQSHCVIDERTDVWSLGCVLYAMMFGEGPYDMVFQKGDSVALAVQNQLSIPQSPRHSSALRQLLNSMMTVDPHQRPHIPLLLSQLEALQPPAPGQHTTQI
Assay: radiometric filter-binding kinase assay
Details: compound 0.1 µM
Numbers only; they are read as %.

Previously resolved entries follow.
>>> endpoint_value("CN(C)C/C=C/C(=O)Nc1cccc(C(=O)Nc2ccc(Nc3nccc(-c4cccnc4)n3)cc2)c1")
108
>>> endpoint_value("O=C(N[C@@H](COc1ccc2[nH]c(=O)[nH]c2c1)c1ccccc1)c1cccn(Cc2ccc(F)c(F)c2)c1=O")
101
>>> endpoint_value("C=CC(=O)N1CCC[C@@H](n2nc(-c3ccc(Oc4ccccc4)cc3)c3c(N)ncnc32)C1")
99
>>> endpoint_value("COc1ccc(N(C(=O)Nc2c(C)cccc2C)c2cc(Nc3ccc(N4CCN(C)CC4)cc3)ncn2)c(OC)c1")
106
>>> endpoint_value("O=C(Nc1nc2cc(C(F)(F)F)cc(NC3CC3)n2n1)c1cccnc1")
96

Result for CNC(=O)C1[C@H]2O[C@@](C)([C@@H]1N)n1c3ccccc3c3c4c(c5c6ccccc6n2c5c31)C(=O)NC4 (stereo partly drawn) , tested on UniProt O75716, residual activity: 85

Result for COc1ccc(-n2ncc3cnc(Nc4cc(OC)c(OC)c(OCCCN5CCN(C)CC5)c4)nc32)cc1 , tested on UniProt O75716, residual activity: 101

Result for COc1cc(O)c2c(c1)/C=C/C[C@H](O)[C@H](O)C(=O)/C=C\C[C@H](C)OC2=O , tested on UniProt O75716, residual activity: 103
